test system: biotinyl-Leu-oxazolone; test: self-aminoacylation, catalytic enhancement (BLO) (fold over background); higher = more active; k-Seq, kA / k0A0; sequences stand for … in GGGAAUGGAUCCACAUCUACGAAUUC…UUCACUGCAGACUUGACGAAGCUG
Fewer inactive variants are shown than the library holds.
measure: self-aminoacylation

[[record]]
residue_sequence = "AGUCACAUAGGUCAUCGGGUG [Fam2.2 aminoacylation ribozyme variant]"
observed_value = 10.2

[[record]]
residue_sequence = "AUUCGCCUAGGACAUCGGGUG [Fam2.2 aminoacylation ribozyme variant]"
observed_value = 4.25

[[record]]
residue_sequence = "AUUACCCUGGUCAUCUAGUGA [Fam2.1 aminoacylation ribozyme variant]"
observed_value = 9.15

[[record]]
residue_sequence = "ACUAACCUAGGUCAUCGGGUG [Fam2.2 aminoacylation ribozyme variant]"
observed_value = 8.64

[[record]]
residue_sequence = "AUUCACCUGGGUCAUCGGGUA [Fam2.2 aminoacylation ribozyme variant]"
observed_value = 22.3

[[record]]
residue_sequence = "AUUACCCUGGUCAUCGUCUGA [Fam2.1 aminoacylation ribozyme variant]"
observed_value = 0.907

[[record]]
residue_sequence = "CUACUUCAAACUAUCGGUCUA [Fam1A.1 aminoacylation ribozyme variant]"
observed_value = 0.696

[[record]]
residue_sequence = "AAGUUAGCUAAUAGUCGCAAG [Fam3.1 aminoacylation ribozyme variant]"
observed_value = 1.52

[[record]]
residue_sequence = "CUGCAUCAAACAAUCGGUCUG [Fam1A.1 aminoacylation ribozyme variant]"
observed_value = 1.18

[[record]]
residue_sequence = "CCUCACUUCAAGCAAUCGGCC [Fam1B.1 aminoacylation ribozyme variant]"
observed_value = 1.59

[[record]]
residue_sequence = "AUUCACCUAGGUCUUCGGGUU [Fam2.2 aminoacylation ribozyme variant]"
observed_value = 3.66

[[record]]
residue_sequence = "AUUCACCUAGGUCAUGGGGCG [Fam2.2 aminoacylation ribozyme variant]"
observed_value = 3.14

[[record]]
residue_sequence = "CCACACUUCUAACAAUCGGUC [Fam1B.1 aminoacylation ribozyme variant]"
observed_value = 0.69

[[record]]
residue_sequence = "UUUUACCUAGGUCAUCGGGUG [Fam2.2 aminoacylation ribozyme variant]"
observed_value = 13.5

[[record]]
residue_sequence = "AAGUUUGAUAAAAGUCGCAAG [Fam3.1 aminoacylation ribozyme variant]"
observed_value = 1.13

[[record]]
residue_sequence = "AUUCCCCUAGGACAUCGGGUG [Fam2.2 aminoacylation ribozyme variant]"
observed_value = 9.47

[[record]]
residue_sequence = "CUACUUCAAACAAUCGAUUUG [Fam1A.1 aminoacylation ribozyme variant]"
observed_value = 0.482

[[record]]
residue_sequence = "AUUCAUCUAGGUCAUCGGGCG [Fam2.2 aminoacylation ribozyme variant]"
observed_value = 3.27

